test system: 407 cancer cell lines; assay: Cell viability of cancer cell lines (IC50), CellTiter-Glo Viability Assay, 96 h; format: cell-based; conditions: Homo sapiens, SCC-25, 96 h, SCC-25 cells, 96 h; read-out: Absolute IC50
pIC50: −log10 of the molar value.
test_readout: pIC50

Param item = Cc1nn(-c2nc(-c3ccc(C(F)(F)F)cc3)c(SC(C)C)s2)c(C(=O)O)c1-c1cccc(F)c1 ; retrieve measured pIC50. < 4.52

====

system: 407 cancer cell lines; assay: Cell viability of cancer cell lines (IC50), CellTiter-Glo Viability Assay, 96 h; type: cell-based; conditions: Homo sapiens, NCI-H1373, NCI-H1373; read-out: Absolute IC50
test_readout: pIC50
Give bare numbers, as −log10 of the molar value.

Form field: pIC50 recorded for Cc1nn(-c2nc(-c3ccc(C(F)(F)F)cc3)c(SC(C)C)s2)c(C(=O)O)c1-c1cccc(F)c1 [Compound A197] with 407 cancer cell lines (enter value) 6.10
